- systemTested: hGluR1 flip (Homo sapiens, UniProt P42261)
- Construct: expressed in transfected cells; host or cells: CHO-K1
- Sequence (P42261 19-906 isoform P42261-2 limits assumed): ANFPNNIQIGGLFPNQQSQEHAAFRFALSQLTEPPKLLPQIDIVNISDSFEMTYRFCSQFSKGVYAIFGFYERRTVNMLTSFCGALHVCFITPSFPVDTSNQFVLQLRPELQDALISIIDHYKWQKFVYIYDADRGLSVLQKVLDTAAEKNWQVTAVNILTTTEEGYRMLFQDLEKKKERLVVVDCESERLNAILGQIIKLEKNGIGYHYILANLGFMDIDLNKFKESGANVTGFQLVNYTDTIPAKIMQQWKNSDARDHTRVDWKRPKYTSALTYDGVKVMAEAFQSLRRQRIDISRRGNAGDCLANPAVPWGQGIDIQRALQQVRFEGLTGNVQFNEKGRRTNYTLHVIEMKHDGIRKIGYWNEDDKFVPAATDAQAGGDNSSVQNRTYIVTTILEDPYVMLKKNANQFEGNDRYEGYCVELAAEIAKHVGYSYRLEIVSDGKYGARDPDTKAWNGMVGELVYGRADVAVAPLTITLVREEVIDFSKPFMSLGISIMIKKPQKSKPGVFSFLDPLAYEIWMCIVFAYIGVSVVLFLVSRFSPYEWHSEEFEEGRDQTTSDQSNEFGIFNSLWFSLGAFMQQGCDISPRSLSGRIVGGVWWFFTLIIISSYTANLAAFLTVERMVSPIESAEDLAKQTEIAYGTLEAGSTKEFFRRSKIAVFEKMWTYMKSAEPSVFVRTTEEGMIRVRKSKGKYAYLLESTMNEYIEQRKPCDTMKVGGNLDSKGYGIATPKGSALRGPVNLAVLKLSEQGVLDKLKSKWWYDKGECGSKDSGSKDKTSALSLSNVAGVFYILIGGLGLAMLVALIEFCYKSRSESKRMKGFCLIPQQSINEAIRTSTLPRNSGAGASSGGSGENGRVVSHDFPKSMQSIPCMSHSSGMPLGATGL
- Sequence (Q9Y698 whole entry partner): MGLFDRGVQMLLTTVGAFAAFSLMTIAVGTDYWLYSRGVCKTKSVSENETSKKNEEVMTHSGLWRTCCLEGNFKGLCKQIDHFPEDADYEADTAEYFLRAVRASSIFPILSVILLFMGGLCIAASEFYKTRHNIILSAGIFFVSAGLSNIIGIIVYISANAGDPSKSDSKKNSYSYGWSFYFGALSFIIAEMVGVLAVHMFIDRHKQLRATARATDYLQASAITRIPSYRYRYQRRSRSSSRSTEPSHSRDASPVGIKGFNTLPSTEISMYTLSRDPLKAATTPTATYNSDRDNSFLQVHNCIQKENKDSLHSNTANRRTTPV
- protocol: AMPA receptor function-enhancing activity using calcium influx as index
- Format: cell-based
- conditionParameters: test compound 30 μM with 3 mM glutamic acid; CHO-K1/GluR1 flip/stargazin-expressing cells; 100% = 3 mM glutamic acid + 300 μM cyclothiazide, 0% = 3 mM glutamic acid alone
Quick reference: activation at 30 µM of the listed items.
Number first, unit second: that is the form wanted.

Query: What activation at 30 µM value was documented for this compound, CCC1(O)CCN(C(=O)c2ccc(-c3cccn4c(=O)cc(C(F)(F)F)nc34)cc2)CC1 [Example 8] ?
Reply: 79.6%

More entries:
Query: What activation at 30 µM value was documented for this compound, CN(CCC#N)C(=O)c1ccc(-c2cccn3c(=O)c(Br)c(C(F)(F)F)nc23)cc1 [Example 99] ?
Reply: 76.9%

Query: What activation at 30 µM value was documented for this compound, Cc1c(C(F)(F)F)nc2c(-c3ccc(C(=O)N[C@@H]4CCCOC4)cc3)cccn2c1=O [Example 102] ?
Reply: 73.8%

Query: What activation at 30 µM value was documented for this compound, O=C(N[C@H]1CCOC1)c1ccc(-c2cccn3c(=O)c(Br)c(C(F)(F)F)nc23)cc1 [Example 55] ?
Reply: 75.1%

Query: What activation at 30 µM value was documented for this compound, O=C(c1ccc(-c2cccn3c(=O)cc(C(F)(F)F)nc23)cc1)N1CCC(O)(C(F)(F)F)CC1 [Example 33] ?
Reply: 79.4%

Query: What activation at 30 µM value was documented for this compound, C[C@@H]1CN(C(=O)c2ccc(-c3cccn4c(=O)c(Br)c(C(F)(F)F)nc34)cc2)CCO1 [Example 49] ?
Reply: 71.6%

Query: What activation at 30 µM value was documented for this compound, CC1(O)CCN(C(=O)c2ccc(-c3cccn4c(=O)cc(C(F)(F)F)nc34)cc2)CC1 [Example 7] ?
Reply: 94%

Query: What activation at 30 µM value was documented for this compound, Cc1c(C(F)(F)F)nc2c(-c3ccc(C(=O)N4CCOCC4)cc3)cccn2c1=O [Example 37] ?
Reply: 74.9%

Query: What activation at 30 µM value was documented for this compound, O=C(c1ccc(-c2cccn3c(=O)c(Br)c(C(F)(F)F)nc23)cc1)N1CCC1 [Example 61] ?
Reply: 77.1%

Query: What activation at 30 µM value was documented for this compound, Cc1c(C(F)(F)F)nc2c(-c3ccc(C(=O)N4CCO[C@@H](C)C4)cc3)cccn2c1=O [Example 67] ?
Reply: 73.5%

Query: What activation at 30 µM value was documented for this compound, O=C(c1ccc(-c2cccn3c(=O)cc(C(F)(F)F)nc23)cc1F)N1CCc2cccnc21 [Example 78] ?
Reply: 94.2%

Query: What activation at 30 µM value was documented for this compound, O=C(c1ccc(-c2cccn3c(=O)c(Br)c(C(F)(F)F)nc23)cc1)N1CCOCC1 [Example 14] ?
Reply: 94.3%

Query: What activation at 30 µM value was documented for this compound, Cc1c(C(F)(F)F)nc2c(-c3ccc(C(=O)N[C@H]4CCCOC4)c(F)c3)cccn2c1=O [Example 115] ?
Reply: 87.9%

Query: What activation at 30 µM value was documented for this compound, C[C@@H]1CN(C(=O)c2ccc(-c3cccn4c(=O)c(Br)c(C(F)(F)F)nc34)cc2F)CCO1 [Example 74] ?
Reply: 88.2%

Query: What activation at 30 µM value was documented for this compound, O=C(NCC(F)(F)F)c1ccc(-c2cccn3c(=O)cc(C(F)(F)F)nc23)cc1F [Example 43] ?
Reply: 84.1%

Query: What activation at 30 µM value was documented for this compound, CO[C@@H]1CCN(C(=O)c2ccc(-c3cccn4c(=O)c(Br)c(C(F)(F)F)nc34)cc2F)C1 [Example 91] ?
Reply: 80.9%

Query: What activation at 30 µM value was documented for this compound, CN(CC(F)F)C(=O)c1ccc(-c2cccn3c(=O)cc(C(F)(F)F)nc23)cc1 [Example 2] ?
Reply: 103%

Query: What activation at 30 µM value was documented for this compound, Cc1c(C(F)(F)F)nc2c(-c3ccc(C(=O)N4CCc5cccnc54)c(F)c3)cccn2c1=O [Example 80] ?
Reply: 90.6%
